System: Plasmodium berghei
assay-summary: Screen against P. berghei liver stage (PbLuc), transformed with Luciferase, at 10uM
Type: functional, HepG2
condition-notes: tested at 10 uM
About 8,600 (12%) of roughly 69,000 compounds showed an effect of 50% or more. For the sample, strong results were picked, then their nearest neighbours and some compounds at random.
With a cut-off of -20%, any INHIBITION strictly below it is called YES; any INHIBITION meeting it or above is called NO.

compound	category
COc1c(CNCC(O)c2cccc(F)c2)c(C)nn1C (stereo unspecified)	YES
CCC[C@H]1CN(CCS(C)(=O)=O)C[C@@H]1NC(=O)c1cc(CC)on1	NO
COc1ccc2c3c1CN(C(=O)N(C)C)CC3=CC(C)(C)CO2	NO

Request: Regarding COC(C)(CNS(=O)(=O)c1cnn(C)c1)c1ccccc1F (stereo unspecified) , kindly confirm whether its INHIBITION is beneath -20%.
Response: NO

Request: Regarding COCC1CC2(CCN(C(=O)c3ccco3)CC2)CN1C(C)C (stereo unspecified) , kindly confirm whether its INHIBITION is beneath -20%.
Response: NO

Request: Regarding `Cc1nn(C(C)C)c(C)c1CN1CCN(C2CCCCC2)C(=O)C1` , kindly confirm whether its INHIBITION is beneath -20%.
Response: NO

----------
Test system: Plasmodium berghei
assay-summary: Screen against P. berghei liver stage (PbLuc), transformed with Luciferase, at 10uM
Assay type: functional, HepG2
condition-notes: tested at 10 uM
Hit rate of the full screen: of about 69,000 compounds, about 8,600 (12%) showed an effect of 50% or more. Many of the other results were omitted from the sample, so strong results are more common in it than they were.
Documented INHIBITION across a set of compounds
# value in %; strip the unit string

In the examples that follow, each entry is paired with its recorded INHIBITION.
compound	system-under-test	INHIBITION, %
Cn1ccnc1CN1C[C@@H]2OCCN(c3ncccn3)[C@@H]2C1	Plasmodium berghei	28.7
CN(C)C(=O)NC1COC2(CCN(C(=O)Nc3ccccc3)CC2)C1 (stereo not given)	Plasmodium berghei	42.1
C[C@@H](CO)NC(=O)c1ccc2nc(NS(C)(=O)=O)sc2c1	Plasmodium berghei	54.2
Cc1ccnn1CCC(=O)N1C[C@@H](O)[C@H](Oc2cccc(F)c2)C1	Plasmodium berghei	9.93

Could you now look at the following compound, please?
Request: Return reported INHIBITION. Input compound: `CSCC[C@@H](CO)NC(=O)c1ccc2nc(NS(C)(=O)=O)sc2c1`
Response: 46.7

----------
Test system: Plasmodium berghei
assay-summary: Screen against P. berghei liver stage (PbLuc), transformed with Luciferase, at 10uM
Format: functional, HepG2
condition-notes: tested at 10 uM
Out of some 69,000 compounds screened, about 8,600 (12%) showed an effect of 50% or more. Only a selection was taken, and strong results are over-represented in it overall.
Documented INHIBITION across a set of molecules
# value in %; strip the unit string

In the examples that follow, each entry is paired with its recorded INHIBITION.
molecule	INHIBITION (%)
CCc1cnc(N2CC[C@H]3[C@@H]2CCC(=O)N3c2ccccc2)nc1	33.5
CN(C)c1nccnc1N1CC[C@@]2(O)CCNC[C@H]2C1	15.8
Cc1ccccc1C(C(=O)N(C)CCc1cnn(C)c1)N(C)C (stereo not drawn)	31.7
O[C@]12CCNC[C@H]1CN(c1ccnc3ccccc13)CC2	56.7
Cc1nc2c(s1)C(N(C)C(=O)NCCCC(C)(C)CO)CCC2 (stereo not drawn)	3.67

Request: Return reported INHIBITION. Input molecule: `O=C1CC[C@H]2[C@H](CCN2c2ccccn2)N1CC1CCOCC1`
Response: 12.7

Request: Return reported INHIBITION. Input molecule: CCNC(=O)N(C)C1CCCc2nc(C)sc21 (stereo not drawn)
Response: 64.9

Request: Return reported INHIBITION. Input molecule: `O[C@]12CCNC[C@H]1CN(c1ncccc1Cl)CC2`
Response: 7.6

Request: Return reported INHIBITION. Input molecule: CCc1nc2c(s1)C(N(C)C(=O)c1csnn1)CCC2 (stereo not drawn)
Response: 68

Request: Return reported INHIBITION. Input molecule: `Cc1cnn(CCNCc2ccccc2OCc2ccncc2)c1`
Response: -15.5

Request: Return reported INHIBITION. Input molecule: `Cc1noc(C)c1CN1CC[C@H]2[C@@H]1CCC(=O)N2CC1CCOCC1`
Response: 6.67

Request: Return reported INHIBITION. Input molecule: CNC(=O)C1(c2cnccn2)CCCN1C(=O)c1ccccc1F (stereo not drawn)
Response: 13.5

----------
Documented INHIBITION across a set of compounds
System: Plasmodium berghei
assay-summary: Screen against P. berghei liver stage (PbLuc), transformed with Luciferase, at 10uM
Format: functional, HepG2
condition-notes: tested at 10 uM
About 8,600 (12%) of roughly 69,000 compounds showed an effect of 50% or more. The entries come from a sample that favours strong results as a whole.
# value in %; strip the unit string

In the examples that follow, each entry is paired with its recorded INHIBITION.
compound	system-under-test	unit	INHIBITION
NC(=O)COc1ccc(CNCc2cc(F)cc(F)c2)cc1	Plasmodium berghei	%	-28
CC(C)(C)Nc1c(C2CCN(C(=O)C(C)(C)C)CC2)nc2ccccn12	Plasmodium berghei	%	30.3
O=C(NCC1CCOC1)N1CCN(Cc2ccc3c(c2)OCO3)CC1 (stereo unspecified)	Plasmodium berghei	%	33.3

Request: Return reported INHIBITION. Input compound: `CNC(=O)N1CC[C@H]2N(C)CC[C@@]2(C(=O)N2CCOCC2)CC1`
Response: -18.4

----------
System: Plasmodium berghei
assay-summary: Screen against P. berghei liver stage (PbLuc), transformed with Luciferase, at 10uM
Type: functional, HepG2
condition-notes: tested at 10 uM
Screen size: about 69,000 compounds; about 8,600 (12%) showed an effect of 50% or more. The full list was thinned out, with strong results kept by preference.
reported-endpoint: INHIBITION

In the examples that follow, each entry is paired with its recorded INHIBITION.
compound	system-under-test	INHIBITION
CCN1CCC2(CC1)CC(NC(=O)c1ccnnc1)c1ccccc12 (stereo unspecified)	Plasmodium berghei	-9.42%
CC(C)(C)n1ncc2c1NC(=O)CC2c1ccc(C#N)cc1 (stereo unspecified)	Plasmodium berghei	-1.04%
CC(C)c1nc(O)c2nnn(C[C@H]3CCCN(Cc4cccs4)C3)c2n1	Plasmodium berghei	2.55%
CCNC(=O)C1CCN(Cn2nc(-c3ccc(F)cc3)oc2=O)CC1	Plasmodium berghei	30.6%
CCS(=O)(=O)N1C[C@@H](O)[C@H](N2CCc3ccccc3C2)C1	Plasmodium berghei	9.98%

Could you now look at the following compound, please?
Request: State INHIBITION on Plasmodium berghei. Entry: Cc1cc(C(=O)NC2CCC3(CCC(=O)N3CC3CC3)CC2)no1 (stereo unspecified)
Response: -1.12%

----------
Tested on: Plasmodium berghei
assay-summary: Screen against P. berghei liver stage (PbLuc), transformed with Luciferase, at 10uM
Type: functional, HepG2
condition-notes: tested at 10 uM
In all, about 69,000 compounds went through this assay and about 8,600 (12%) showed an effect of 50% or more. The sample holds strong results, similar compounds and a random draw of the others, so the mix is not that of the screen.
With a cut-off of 40%, any INHIBITION strictly below it is called Condition met; any INHIBITION meeting it or above is called Condition not met.

compound	category
CN1CCc2c(C#N)c(NCc3ccco3)n3cnnc3c2C1	Condition met
CC(=O)N1CCOC(c2cncc(CCC(N)=O)n2)C1 (configuration not stated)	Condition met
Cc1ccc(CC(=O)N2CCCC(c3n[nH]c4nccnc34)C2)cc1 (configuration not stated)	Condition not met
O=C(Cn1ccnc1)N1CC[C@H](Oc2cccc(F)c2)[C@@H](O)CC1	Condition met
Cc1nnc2n1CCN(CCOc1cccc(C#N)c1)C2	Condition not met
CN1CCc2c(C#N)c(NCc3ccccc3)n3cnnc3c2C1	Condition met

Request: Regarding NC(=O)c1cc(C2CCCN(C(=O)CCc3ccsc3)C2)n[nH]1 (configuration not stated) , kindly confirm whether its INHIBITION is beneath 40%.
Response: Condition not met

Request: Regarding `CN1CCc2c(C#N)c(NCc3cccnc3)n3cnnc3c2C1` , kindly confirm whether its INHIBITION is beneath 40%.
Response: Condition not met

Request: Regarding `Cc1cnc(N2CCCC3(CCOCC3)C2)nc1` , kindly confirm whether its INHIBITION is beneath 40%.
Response: Condition met

Request: Regarding O=C(c1cc(=O)[nH]c(=O)[nH]1)N1CCCC(CO)(CC2CC2)C1 (configuration not stated) , kindly confirm whether its INHIBITION is beneath 40%.
Response: Condition not met

Request: Regarding `Cc1cc(CN2CCc3cncnc3C2)no1` , kindly confirm whether its INHIBITION is beneath 40%.
Response: Condition met

Request: Regarding `CC(C)CCNc1c(C#N)c2c(c3nncn13)CN(C)CC2` , kindly confirm whether its INHIBITION is beneath 40%.
Response: Condition not met
